Attribution: ChEMBL document CHEMBL1201862

# System: OVCAR-3
# protocol_details: NCI tumour cell line growth inhibition, 48 h
Calls of active or inactive are those of the source. Cut-off read from the data, not from the text of the source: active = GI50 up to about 1.1 µM and inactive = higher.
The reply should be one of these categories: active, inactive

Please review the entries below; each comes with its answer.
molecule | assigned_label
Cc1c(-c2ccccc2)c(-c2ccc(OCCN(C)C)cc2)n2ccccc12 | inactive
O=C(CC(=O)Nc1cccc(Cl)c1)NNCC(=O)Nc1nnc(-c2ccccc2)s1 | inactive
Cc1ncc([N+](=O)[O-])n1CCNS(=O)(=O)CCCn1ncnc1[N+](=O)[O-] | inactive
Cc1ccc([Se](=C(C(=O)c2ccccc2)C(=O)c2ccccc2)c2ccc(C)cc2)cc1 | inactive
CC1C(O)=C(O)c2ccccc2N1O (stereo not given) | inactive

Field: outcome | Entry: `Cc1cc(NC(=O)NC(=O)c2ccccc2NC(=O)CN)ccc1Oc1ncc(Br)cn1` active

Field: outcome | Entry: `CCOC(=O)NC(Nc1c(F)c(F)c(F)c(F)c1F)(C(F)(F)F)C(F)(F)F` inactive

Field: outcome | Entry: COP(C)(=O)C(Cc1c[nH]c2ccccc12)NC(=O)OCc1ccccc1 (stereo not given) inactive

Field: outcome | Entry: C/C(=N\NC(N)=O)C(CN(C)C)C(c1ccccc1)c1c(O)c2ccccc2oc1=O (stereo not given) inactive

Field: outcome | Entry: OCC(O)C(O)C(O)c1nn(-c2ccccc2)c2nc3cc(Cl)c(Cl)cc3nc12 (stereo not given) inactive
